Tested on: HIV-2
Experiment: In-vitro anti HIV test, HIV-2, thymidine kinase-deficient T-lymphocyte strain CEM/TK^-
Format: cell-based, HIV-2 in human T lymphocytes (CEM/TK^-)
Settings: Human immunodeficiency virus 2, CEM-TK(-), read-out: Antiviral activity EC50 CEM/TK^- HIV-2
Catalogue of molecules with associated EC50

# example entries with known answers
- Cc1cn([C@H]2CC[C@@H](COP(=O)(OC[C@@H]3CC[C@H](n4cc(C)c(=O)[nH]c4=O)O3)C(O)c3ccc(C#N)cc3)O2)c(=O)[nH]c1=O (some centres unmarked): > 100 µg/mL
- Cc1cn([C@H]2CC[C@@H](COP(=O)(OC[C@@H]3CC[C@H](n4cc(C)c(=O)[nH]c4=O)O3)C(O)c3ccc(N(C)C)cc3)O2)c(=O)[nH]c1=O (some centres unmarked): > 100 µg/mL
- Cc1cn([C@H]2C=C[C@@H](COP(=O)(OC[C@@H]3C=C[C@H](n4cc(C)c(=O)[nH]c4=O)O3)C(O)c3ccc(C#N)cc3)O2)c(=O)[nH]c1=O (some centres unmarked): > 100 µg/mL

Query: Which EC50 value is on record for Cc1ccc(C(O)P(=O)(OC[C@@H]2CC[C@H](n3cc(C)c(=O)[nH]c3=O)O2)OC[C@@H]2CC[C@H](n3cc(C)c(=O)[nH]c3=O)O2)cc1 (some centres unmarked) ?
Reply: > 100 µg/mL

Query: Given the entry COc1ccc(C(O)P(=O)(OC[C@@H]2CC[C@H](n3cc(C)c(=O)[nH]c3=O)O2)OC[C@@H]2CC[C@H](n3cc(C)c(=O)[nH]c3=O)O2)cc1 (some centres unmarked) , report its measured EC50.
Reply: > 20 µg/mL

Query: I have this molecule here, COc1ccc(C(O)P(=O)(OC[C@@H]2C=C[C@H](n3cc(C)c(=O)[nH]c3=O)O2)OC[C@@H]2C=C[C@H](n3cc(C)c(=O)[nH]c3=O)O2)cc1 (some centres unmarked) , and I need its recorded EC50.
Reply: > 100 µg/mL

Query: May I ask what EC50 has been recorded for Cc1cn([C@H]2CC[C@@H](COP(=O)(OC[C@@H]3CC[C@H](n4cc(C)c(=O)[nH]c4=O)O3)C(O)c3ccccc3)O2)c(=O)[nH]c1=O (some centres unmarked) ?
Reply: > 100 µg/mL

Query: May I ask what EC50 has been recorded for Cc1cn([C@H]2CC[C@@H](COP(=O)(OC[C@@H]3CC[C@H](n4cc(C)c(=O)[nH]c4=O)O3)C(O)c3ccc([N+](=O)[O-])cc3)O2)c(=O)[nH]c1=O (some centres unmarked) ?
Reply: > 100 µg/mL

Query: If you can, please state the reported EC50 value of Cc1cn([C@H]2CC[C@@H](COP(=O)(OC[C@@H]3CC[C@H](n4cc(C)c(=O)[nH]c4=O)O3)C(O)c3c(Cl)cccc3Cl)O2)c(=O)[nH]c1=O (some centres unmarked) .
Reply: > 20 µg/mL

Query: Would you mind telling me what EC50 value was observed for Cc1cn([C@H]2C=C[C@@H](COP(=O)(OC[C@@H]3C=C[C@H](n4cc(C)c(=O)[nH]c4=O)O3)C(O)c3ccc([N+](=O)[O-])cc3)O2)c(=O)[nH]c1=O (some centres unmarked) ?
Reply: > 100 µg/mL

Query: Would you kindly share the measured EC50 for Cc1ccc(C(O)P(=O)(OC[C@@H]2C=C[C@H](n3cc(C)c(=O)[nH]c3=O)O2)OC[C@@H]2C=C[C@H](n3cc(C)c(=O)[nH]c3=O)O2)cc1 (some centres unmarked) ?
Reply: > 100 µg/mL

---

Test: Toxicity (cytotoxic action) in human T lymphocytes
Format: cell-based
Conditions: cem t lymphocytes, read-out: Toxicity CC50
Entries and their measured CC50 follow.

Previously resolved entries follow.
- Cc1cn([C@H]2C=C[C@@H](COP(=O)(OC[C@@H]3C=C[C@H](n4cc(C)c(=O)[nH]c4=O)O3)C(O)c3ccc(Cl)cc3)O2)c(=O)[nH]c1=O (stereo partly drawn) [Compound 2e]: > 100 µg/mL
- Cc1cn([C@H]2CC[C@@H](COP(=O)(OC[C@@H]3CC[C@H](n4cc(C)c(=O)[nH]c4=O)O3)C(O)c3ccc(N(C)C)cc3)O2)c(=O)[nH]c1=O (stereo partly drawn) [Compound 1a]: > 100 µg/mL

Now examine the next entry.
Query: Quick one: CC50 of Cc1cn([C@H]2CC[C@@H](COP(=O)(OC[C@@H]3CC[C@H](n4cc(C)c(=O)[nH]c4=O)O3)C(O)c3ccc([N+](=O)[O-])cc3)O2)c(=O)[nH]c1=O (stereo partly drawn) [Compound 1h] ?
Reply: > 100 µg/mL

---

Tested on: HIV-2
Assay: In-vitro anti HIV test, HIV-2, human T lymphocytes CEM/O
Assay type: cell-based, HIV-2 in human T lymphocytes (CEM/O)
Settings: Human immunodeficiency virus 2, T-lymphocyte; HIV-2, CEM/O cells; read-out: Antiviral activity EC50 CEM/O HIV-2
observed_property: EC50 (µg/mL)
Please respond with the number in µg/mL and leave the unit unwritten.

• Cc1cn([C@H]2CC[C@@H](COP(=O)(OC[C@@H]3CC[C@H](n4cc(C)c(=O)[nH]c4=O)O3)C(O)c3ccc([N+](=O)[O-])cc3[N+](=O)[O-])O2)c(=O)[nH]c1=O (stereo partly drawn) = 3.5
• COc1ccc(C(O)P(=O)(OC[C@@H]2C=C[C@H](n3cc(C)c(=O)[nH]c3=O)O2)OC[C@@H]2C=C[C@H](n3cc(C)c(=O)[nH]c3=O)O2)cc1 (stereo partly drawn) = 0.12

Field: next compound
Query: Bench note: what EC50 did Cc1cn([C@H]2CC[C@@H](COP(=O)(OC[C@@H]3CC[C@H](n4cc(C)c(=O)[nH]c4=O)O3)C(O)c3ccc(Cl)cc3)O2)c(=O)[nH]c1=O (stereo partly drawn) show?
Reply: 4

---

System: HIV-2
Assay: In-vitro anti HIV test, HIV-2, thymidine kinase-deficient T-lymphocyte strain CEM/TK^-
Assay type: cell-based, HIV-2 in human T lymphocytes (CEM/TK^-)
Conditions: Human immunodeficiency virus 2, CEM-TK(-), read-out: Antiviral activity EC50 CEM/TK^- HIV-2
observed_property: EC50

Sample records with EC50:
- Cc1cn([C@H]2CC[C@@H](COP(=O)(OC[C@@H]3CC[C@H](n4cc(C)c(=O)[nH]c4=O)O3)C(O)c3ccc(Cl)cc3)O2)c(=O)[nH]c1=O (stereo partly drawn): > 100 µg/mL
- Cc1cn([C@H]2C=C[C@@H](COP(=O)(OC[C@@H]3C=C[C@H](n4cc(C)c(=O)[nH]c4=O)O3)C(O)c3c(Cl)cccc3Cl)O2)c(=O)[nH]c1=O (stereo partly drawn): > 20 µg/mL
- Cc1cn([C@H]2C=C[C@@H](COP(=O)(OC[C@@H]3C=C[C@H](n4cc(C)c(=O)[nH]c4=O)O3)C(O)c3ccccc3)O2)c(=O)[nH]c1=O (stereo partly drawn): > 100 µg/mL
- Cc1cn([C@H]2C=C[C@@H](COP(=O)(OC[C@@H]3C=C[C@H](n4cc(C)c(=O)[nH]c4=O)O3)C(O)c3ccc(Cl)cc3)O2)c(=O)[nH]c1=O (stereo partly drawn): > 100 µg/mL

Query: Endpoint output: EC50 of Cc1cn([C@H]2CC[C@@H](COP(=O)(OC[C@@H]3CC[C@H](n4cc(C)c(=O)[nH]c4=O)O3)C(O)c3ccc([N+](=O)[O-])cc3[N+](=O)[O-])O2)c(=O)[nH]c1=O (stereo partly drawn) . Value?
Reply: > 100 µg/mL

Query: # query: EC50 of entry Cc1cn([C@H]2C=C[C@@H](COP(=O)(OC[C@@H]3C=C[C@H](n4cc(C)c(=O)[nH]c4=O)O3)C(O)c3ccc([N+](=O)[O-])cc3[N+](=O)[O-])O2)c(=O)[nH]c1=O (stereo partly drawn)
Reply: > 100 µg/mL

---

Tested on: HIV-2
Test: In-vitro anti HIV test, HIV-2, human T lymphocytes CEM/O
Type: cell-based, HIV-2 in human T lymphocytes (CEM/O)
Conditions: Human immunodeficiency virus 2, T-lymphocyte; HIV-2, CEM/O cells; read-out: Antiviral activity EC50 CEM/O HIV-2
observed_property: EC50
Numeric answer plus unit only.

- Cc1cn([C@H]2C=C[C@@H](COP(=O)(OC[C@@H]3C=C[C@H](n4cc(C)c(=O)[nH]c4=O)O3)C(O)c3ccc(C#N)cc3)O2)c(=O)[nH]c1=O (stereo partly shown): 0.33 µg/mL
- Cc1cn([C@H]2CC[C@@H](COP(=O)(OC[C@@H]3CC[C@H](n4cc(C)c(=O)[nH]c4=O)O3)C(O)c3ccc([N+](=O)[O-])cc3)O2)c(=O)[nH]c1=O (stereo partly shown): 3 µg/mL
- Cc1cn([C@H]2C=C[C@@H](COP(=O)(OC[C@@H]3C=C[C@H](n4cc(C)c(=O)[nH]c4=O)O3)C(O)c3ccc(Cl)cc3)O2)c(=O)[nH]c1=O (stereo partly shown): 0.12 µg/mL
- Cc1cn([C@H]2C=C[C@@H](COP(=O)(OC[C@@H]3C=C[C@H](n4cc(C)c(=O)[nH]c4=O)O3)C(O)c3ccc([N+](=O)[O-])cc3[N+](=O)[O-])O2)c(=O)[nH]c1=O (stereo partly shown): 0.33 µg/mL
- Cc1ccc(C(O)P(=O)(OC[C@@H]2CC[C@H](n3cc(C)c(=O)[nH]c3=O)O2)OC[C@@H]2CC[C@H](n3cc(C)c(=O)[nH]c3=O)O2)cc1 (stereo partly shown): 10 µg/mL

Query: For COc1ccc(C(O)P(=O)(OC[C@@H]2CC[C@H](n3cc(C)c(=O)[nH]c3=O)O2)OC[C@@H]2CC[C@H](n3cc(C)c(=O)[nH]c3=O)O2)cc1 (stereo partly shown) , what is its reported EC50?
Reply: 0.55 µg/mL

Query: State the recorded EC50 for this entry: Cc1cn([C@H]2CC[C@@H](COP(=O)(OC[C@@H]3CC[C@H](n4cc(C)c(=O)[nH]c4=O)O3)C(O)c3ccc(C#N)cc3)O2)c(=O)[nH]c1=O (stereo partly shown)
Reply: 7.7 µg/mL
